- SYSTEM_NAME: MAGL (Mus musculus, UniProt O35678)
- Construct: Proteomes (mouse brain membrane fraction or cell lysates); from tissue; host or cells: mouse brain membrane fraction (or cell lysates, not specified)
- Sequence (O35678 1-303): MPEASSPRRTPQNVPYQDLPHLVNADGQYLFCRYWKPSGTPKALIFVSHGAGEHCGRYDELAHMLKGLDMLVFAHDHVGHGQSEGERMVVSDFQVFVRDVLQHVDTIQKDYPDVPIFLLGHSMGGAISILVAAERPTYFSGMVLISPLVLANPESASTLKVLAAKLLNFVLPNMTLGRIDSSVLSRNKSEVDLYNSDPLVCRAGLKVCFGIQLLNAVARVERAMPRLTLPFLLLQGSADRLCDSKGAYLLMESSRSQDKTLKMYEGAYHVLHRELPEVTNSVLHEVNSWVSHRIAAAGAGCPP
- ASSAY_SUMMARY: In vitro competitive activity-based protein profiling (gel-based, FP-Rh or HT-01 probe)
- Format: biochemical
- EXPERIMENTAL_CONTEXT: 1 μM inhibitor
For each of the compounds below, state its inhibition at 1 µM.

Here are 6 compounds. What values of inhibition at 1 µM were reported for them?
1. COc1cc(-c2ccccc2)ccc1CN1CCN(C(=O)n2cc(Cl)cn2)CC1
2. Cc1cnn(C(=O)Nc2ccc3ccccc3c2)c1
3. N#Cc1cnn(C(=O)N2CCN(Cc3ccc(-c4ccccc4)cc3)CC2)c1
4. O=C(N1CCN(Cc2ccc3c(c2)OCO3)CC1)n1cc(-c2ccccc2)cn1
5. N#Cc1cnn(C(=O)N2CCOCC2)c1
6. COc1ccccc1-c1ccc(-c2cnn(C(=O)N3CCCC3)c2)cc1

RESULT:
["> 75%", "< 25%", "> 75%", "< 25%", "< 25%", "< 25%"]

* * *

- SYSTEM_NAME: PLA2G7 (Mus musculus, UniProt Q60963)
- Construct: Proteomes (mouse brain membrane fraction or cell lysates); from tissue; host or cells: mouse brain membrane fraction (or cell lysates, not specified)
- Sequence (Q60963 22-440): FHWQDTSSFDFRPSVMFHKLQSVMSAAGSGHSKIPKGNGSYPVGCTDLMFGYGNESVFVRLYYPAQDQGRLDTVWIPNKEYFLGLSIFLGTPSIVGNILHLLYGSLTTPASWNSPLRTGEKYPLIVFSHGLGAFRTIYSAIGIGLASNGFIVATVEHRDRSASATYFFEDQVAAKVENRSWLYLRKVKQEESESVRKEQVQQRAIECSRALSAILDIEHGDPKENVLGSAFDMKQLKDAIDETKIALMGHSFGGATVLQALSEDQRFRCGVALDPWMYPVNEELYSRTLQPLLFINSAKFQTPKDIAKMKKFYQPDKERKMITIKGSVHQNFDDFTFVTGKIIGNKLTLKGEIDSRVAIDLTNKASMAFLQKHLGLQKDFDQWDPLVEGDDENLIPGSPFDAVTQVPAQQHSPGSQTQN
- ASSAY_SUMMARY: In vitro competitive activity-based protein profiling (gel-based, FP-Rh or HT-01 probe)
- Assay type: biochemical
- EXPERIMENTAL_CONTEXT: 10 μM inhibitor; read-out: % Inhibition at 10 μM, D = PLA2G7
REPORTED_ENDPOINT: inhibition at 10 µM

As a guide, the following entries are already answered.
O=C(N1CCN(c2cccc(Cl)c2)CC1)n1cc(C(F)(F)F)cn1 [Example 228] : > 75%
Cc1cc(N2CCN(C(=O)n3cc(Cl)cn3)CC2)c2ccccc2n1 [Example 208] : > 75%

Here are 3 compounds. What values of inhibition at 10 µM were reported for them?
1. O=C(c1cnn(C(=O)N2CCN(Cc3ccncc3)CC2)c1)N1CCC1 [Example 87]
2. N#Cc1cnn(C(=O)NCc2ccc3ccccc3c2)c1 [Example 45]
3. CS(=O)(=O)N1CCN(C(=O)n2cc(C(F)(F)F)cn2)CC1 [Example 150]

RESULT:
1. > 75%
2. < 25%
3. > 75%

Here are 6 compounds. What values of inhibition at 10 µM were reported for them?
1. CN(CCN(C)C(=O)n1cc(C#N)cn1)C(=O)c1ccccc1 [Example 182]
2. Cc1cnn(C(=O)N2CCCN(C(=O)c3ccccc3)CC2)c1 [Example 169]
3. O=C(N1CCN(c2ccc(N3CCOCC3)cc2)CC1)n1cc(C(F)(F)F)cn1 [Example 238]
4. Cc1cc(-c2ccccc2)ccc1CN1CCN(C(=O)n2cc(Cl)cn2)CC1 [Example 137]
5. CC(=O)N(C)CCN(C)C(=O)n1cc(C)cn1 [Example 170]
6. O=C(c1cnn(C(=O)N2CCN(Cc3ccc4c(c3)OCO4)CC2)c1)N1CCCCC1 [Example 69]

RESULT:
["> 75%", "< 25%", "> 75%", "25 to 75%", "< 25%", "> 75%"]

Here are 4 compounds. What values of inhibition at 10 µM were reported for them?
1. CN1CCN(C(=O)n2cc(C#N)cn2)CC1 [Example 175]
2. Cc1cnn(C(=O)N2CCN(Cc3ccc4ccccc4c3)CC2)c1 [Example 11]
3. O=C(N1CCN(c2ccccc2N2CCCC2)CC1)n1cc(C(F)(F)F)cn1 [Example 239]
4. Cc1cnn(C(=O)N2CCN(C)CC2)c1 [Example 163]

RESULT:
1. > 75%
2. > 75%
3. > 75%
4. < 25%

Here are 4 compounds. What values of inhibition at 10 µM were reported for them?
1. O=C(c1cnn(C(=O)N2CCN(Cc3ccncn3)CC2)c1)N1CCC1 [Example 90]
2. O=C(N1CCN(Cc2nccs2)CC1)n1cc(-c2ccccc2)cn1 [Example 63]
3. CC(=O)N1CCCN(C(=O)n2cc(C)cn2)CC1 [Example 165]
4. N#Cc1cnn(C(=O)N2CCCCC2)c1 [Example 3]

RESULT:
> 75%
> 75%
< 25%
> 75%

QUERY: Look up inhibition at 10 µM for this compound: O=C(N1CCN(c2ccc(N3CCCC3)cc2)CC1)n1cc(C(F)(F)F)cn1 [Example 241]
RESULT: > 75%
